The binders listed here are annotated with their pKd.
- tested_on: T1, Plasmodium falciparum histidine-rich protein II (HRP-II) (Plasmodium falciparum, UniProt P05227 22-332)
- T1 construct: Coating antigen of all ELISAs; also called HRP-II protein; MA-HRPII Ag protein
- T1 sequence (looked up): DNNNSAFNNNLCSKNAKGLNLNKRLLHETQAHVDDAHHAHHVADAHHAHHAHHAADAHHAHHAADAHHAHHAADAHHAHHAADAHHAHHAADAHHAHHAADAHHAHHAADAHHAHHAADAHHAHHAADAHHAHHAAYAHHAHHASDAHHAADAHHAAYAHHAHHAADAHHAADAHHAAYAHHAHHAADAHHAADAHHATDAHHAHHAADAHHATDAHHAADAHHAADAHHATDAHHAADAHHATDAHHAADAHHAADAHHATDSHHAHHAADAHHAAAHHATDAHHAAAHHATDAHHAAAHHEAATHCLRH
- assay_name: indirect ELISA, four antigen coating concentrations;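 also: optical density read across an antibody dilution series at each antigen coating level, curves plotted on log scale, KD derived as reciprocal of the averaged constant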
Scale note: pKd = -log10(concentration in M).

binder | pKd
Mutation 1-3 (antibody, mouse IgG2b, kappa, V domains shown, Mutation 1 as framework) VH: EVQLQQSGPEVVKPGASVKISCKASGYTITDYYMNWVKQSHGKGLEWIGDLNPINGGTAYQQKFRDKATLTVDKSSNTAYMELRSLTSEDSALYYCTRGAEDYWGQGTTLTVSS VL: DVVLTQTPLSLSVTIGQPASISCKSSQSIIYSNGKIYLNWFQQRPGQSPKRLMYQLSKLEPGIPDRFSGSGSETDFTLKISRVEAEDLGVYYCLQGTYSPQTFGGGTKLEIKR | 9.44

Please look at this binder and report its pKd: Mutation 1-18 (antibody, mouse IgG2b, kappa, V domains shown, Mutation 1 as framework) VH: EVQLQQSGPEVVKPGASVKISCKASGYTLTDYYMNWVKQSHGKGLEWIGDLNPIQGGTAYNQKFRDKATLTVDKSSNTAYMELRSLTSEDSALYYCTKGAEDYWGQGTTLTVSS VL: DVVLTQTPLSLSVTIGQPASISCKSSQSLLYSQGKIYLNWFQQRPGQSPKRLMYQISKLDPGIPDRFSGSGSETDFTLKISRVEAEDLGVYYCLQGTYTPQTFGGGTKLEIKR 10.29

Taken from patent US20220002395A1.
